System: MALME-3M melanoma
assay notes: NCI tumour cell line growth inhibition, 48 h; in the data active means GI50 below about 0.43 µM; inactive means the rest
Choose the fitting class; nothing outside active, inactive is accepted.

### Prompt Assay result, entry O=c1[nH]cnc2nc(-c3ccc(N(CCCl)CCCl)cc3)[nH]c12 — outcome?
### Response inactive

### Prompt Write down the call the test reported for this compound. Item: CC(=O)O[C@H](C[C@H](C(C)C)N(C)C(=O)[C@@H](NC(=O)[C@H]1CCCCN1C)C(C)(C)C)c1nc(C(=O)N[C@@H](Cc2ccccc2)C[C@H](C)C(=O)O)cs1
### Response active

### Prompt Outcome logged for CN(C)c1ccc(N=C(C#N)c2nc(N)nc(N3CCN(c4ccccc4)CC3)n2)cc1 in this assay:
### Response active

### Prompt Recorded test outcome, item C=C1C[C@@H]2[C@H](CC[C@]3(C)C(=O)CC[C@@H]23)[C@@]2(C)C=CC(=O)C=C12
### Response inactive

### Prompt Recorded test call requested for C/C=C/C(=O)[O-].N.N.N.N.N.[Co+3].[O-][Cl+3]([O-])([O-])[O-]
### Response inactive

### Prompt Just curious, what result did N#C/C(=C\c1cccnc1)c1nc2ccccc2o1 get here?
### Response inactive

### Prompt Dear colleague, could you share the recorded outcome for C=C1C(=O)O[C@H]2[C@H]1CC/C(COC(=O)/C=C/c1c[nH]c3ccccc13)=C\CC[C@@]1(C)O[C@@H]21 when you have a moment?
### Response active

### Prompt Query: recorded result category for Cc1cc(S(=O)(=O)Nc2nc3cc(-c4ccsc4)sc3c(=O)n2N)c(S)cc1Cl in this test
### Response inactive

### Prompt Recorded call for CCC1OC(/C(C)=C/C(C)/C=C/C2C(C)C2/C=C/C2OC(CC(=O)O)CC(O)C2O)CC=C1C (centres undefined) ?
### Response inactive

### Prompt How was Cc1[nH]n(-c2ccccc2)c(=O)c1C(=O)c1ccccc1 classified in this test?
### Response inactive

### Prompt # lookup: test call for NC1CCCCC1N.O=S(=O)([O-])CCCN1CCN(CCO)CC1.O=S(=O)([O-])CCCN1CCN(CCO)CC1.[Pt+4]
### Response inactive

### Prompt Field: outcome | Entry: Cc1nc2sc(C(=O)Nc3cccc(Cl)c3C)c(N)c2cc1C(C)O (centres undefined)
### Response inactive

### Prompt What was the test verdict on FC(F)(F)c1cc(NC2=NCCN=C(Nc3cc(C(F)(F)F)cc(C(F)(F)F)c3)SS2)cc(C(F)(F)F)c1 ?
### Response inactive

### Prompt Dear colleague, could you share the recorded outcome for Cc1nn2c(/C=C3\C(=O)Nc4ccccc43)c(C)nc2s1 when you have a moment?
### Response inactive
